Test system: CAL-12T
test details: relative viability (nuclei count vs DMSO), 5 days (fraction); higher = more cells survive
condition info: first compound 0.8 µM

# compound, relative viability
measured = [
    ("Nc1cccc2c1CN(C1CCC(=O)NC1=O)C2=O (stereo not given) [Lenalidomide] + COc1cc2c(Oc3ccc(NC(=O)C4(C(=O)Nc5ccc(F)cc5)CC4)cc3F)ccnc2cc1OCCCN1CCOCC1 [Foretinib] (partner 0.25 µM)", 1.22),
    ("Nc1cccc2c1CN(C1CCC(=O)NC1=O)C2=O (stereo not given) [Lenalidomide] + Nc1nc2[nH]cc(CCc3ccc(C(=O)N[C@@H](CCC(=O)O)C(=O)O)cc3)c2c(=O)[nH]1 [Pemetrexed] (partner 0.2 µM)", 1.32),
    ("Nc1cccc2c1CN(C1CCC(=O)NC1=O)C2=O (stereo not given) [Lenalidomide] + NC(=O)Nc1cc(-c2cccc(F)c2)sc1C(=O)N[C@H]1CCCNC1 [AZD7762] (partner 0.2 µM)", 0.564),
    ("Nc1cccc2c1CN(C1CCC(=O)NC1=O)C2=O (stereo not given) [Lenalidomide] + Cc1nc(Nc2ncc(C(=O)Nc3c(C)cccc3Cl)s2)cc(N2CCN(CCO)CC2)n1 [Dasatinib] (partner 0.075 µM)", 0.345),
    ("Nc1cccc2c1CN(C1CCC(=O)NC1=O)C2=O (stereo not given) [Lenalidomide] + N=C(N)NC(=N)NCCc1ccccc1 [Phenformin] (partner 250 µM)", 0.633),
]
